- Tested on: CCRIS mutagenicity, Ames/micronucleus/aberration tests
- test protocol: CCRIS mutagenicity studies
- conditions: Test System: AMES SALMONELLA TYPHIMURIUM; Strain/Indicator: TA98; Metabolic Activation: RAT, LIVER, S-9, AROCLOR 1254; Method: STANDARD PLATE
The source made the active and inactive calls. The rule behind the calls is not given here.
Classes used: class 1 (active), class 0 (inactive)

# molecule, assigned category
measured = [
    ("O=C(O)CCCc1c[nH]c2ccccc12", "class 0"),
    ("O=C(/C=C/c1ccc(O)cc1)c1ccccc1", "class 0"),
    ("CC(C)=C[C@@H]1[C@@H](C(=O)OCc2coc(Cc3ccccc3)c2)C1(C)C", "class 0"),
    ("Nc1cc([N+](=O)[O-])c(N)cc1Cl", "class 1"),
    ("C/C=C/c1ccc(O)c(OC)c1", "class 0"),
    ("CC(=O)Nc1ccc([N+](=O)[O-])cc1", "class 0"),
    ("C1CCC2OCCOCCOC3CCCCC3OCCOCCOC2C1 (stereo not drawn)", "class 0"),
    ("O=C1c2cc(S(=O)(=O)O)ccc2C(=O)c2c1cccc2[N+](=O)[O-]", "class 1"),
    ("[O-][N+](=Nc1ccc2c(c1)Cc1ccccc1-2)c1ccc2c(c1)Cc1ccccc1-2", "class 0"),
    ("ClC(Cl)=C(Cl)c1c(Cl)c(Cl)c(Cl)c(Cl)c1Cl", "class 0"),
    ("CNP1(NC)=NP(NC)(NC)=NP(NC)(NC)=N1", "class 0"),
    ("Clc1ccccn1", "class 1"),
    ("O=C(CO)N(O)c1ccc(Cl)cc1", "class 0"),
]
